testSystem: human AChE (Homo sapiens)
Construct: human erythrocyte AChE (Biomed, Auckland, New Zealand); purchased Biomed, Auckland, New Zealand; host or cells: human erythrocytes (natural source)
Sequence (P22303 32-617 isoform P22303-2 limits assumed): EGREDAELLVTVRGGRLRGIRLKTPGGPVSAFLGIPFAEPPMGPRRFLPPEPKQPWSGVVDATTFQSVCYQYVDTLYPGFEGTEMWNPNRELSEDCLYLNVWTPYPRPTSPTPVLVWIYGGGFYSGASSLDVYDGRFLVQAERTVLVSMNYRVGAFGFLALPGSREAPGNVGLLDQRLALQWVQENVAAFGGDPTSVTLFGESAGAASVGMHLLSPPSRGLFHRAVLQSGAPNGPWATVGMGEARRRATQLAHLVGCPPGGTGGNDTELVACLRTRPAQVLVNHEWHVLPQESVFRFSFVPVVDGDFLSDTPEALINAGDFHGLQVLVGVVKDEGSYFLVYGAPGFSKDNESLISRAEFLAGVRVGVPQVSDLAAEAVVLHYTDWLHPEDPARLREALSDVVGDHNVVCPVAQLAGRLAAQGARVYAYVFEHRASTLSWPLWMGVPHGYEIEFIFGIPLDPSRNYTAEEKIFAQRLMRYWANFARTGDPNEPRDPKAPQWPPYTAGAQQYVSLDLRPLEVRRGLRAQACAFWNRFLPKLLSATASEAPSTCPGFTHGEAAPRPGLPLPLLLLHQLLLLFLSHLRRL
procedureText: biochemical
Assay type: biochemical
statedConditions: human AChE, mixed inhibition model
quantityMeasured: thermodynamic cooperativity factor α

CCN(CC)CCNC(=O)n1c(=O)n(C2CC2)c2ccccc21 [Compound 27] : 10.9
CC(C)n1c(=O)n(C(=O)NC2CC3CCC(C2)N3C)c2ccccc21 (centres unmarked) [Compound 15, reference compound] : 6.6
CC(C)n1c(=O)n(C(=O)NC2CC3CCC(C2)N3C)c2cc(C(F)(F)F)ccc21 (centres unmarked) [Compound 16] : 5.1
CCN(CC)CCNC(=O)n1c(=O)n(C(C)C)c2ccc(C(F)(F)F)cc21 [Compound 23] : 3.1

Below: the item to evaluate.
thermodynamic cooperativity factor α reported for this compound CN(C)CCNC(=O)n1c(=O)n(C2CC2)c2ccccc21 [Compound 28] : 12.6
